Test system: OVCAR-3 ovarian
Assay: NCI tumour cell line growth inhibition, 48 h
Readout Name: TGI (µM)

[[record]]
molecule = "Nc1c(-c2nc3ccccc3[nH]2)sc(=S)n1-c1ccc(Cl)cc1"
readout_name = "TGI"
measure_unit = "µM"
bound_operator = "="
numeric_result = 36.4

[[record]]
molecule = "Cc1ncc([N+](=O)[O-])n1CCNC(=O)CCCCCn1ccnc1[N+](=O)[O-]"
readout_name = "TGI"
measure_unit = "µM"
bound_operator = ">"
numeric_result = 100

[[record]]
molecule = "Cn1ncc(-c2ccc3c(=O)[nH]nc(CN)c3c2)c1-c1c(F)cc2ccccc2c1C#N"
readout_name = "TGI"
measure_unit = "µM"
bound_operator = "="
numeric_result = 19.5

[[record]]
molecule = "COC(=O)[C@H](CCSC)NC(=O)c1ccc(CNC(=O)/C(C)=C/c2ccccc2)cc1"
readout_name = "TGI"
measure_unit = "µM"
bound_operator = ">"
numeric_result = 100

[[record]]
molecule = "O=[As]c1ccc(C(=O)c2ccc(Oc3ccccc3)cc2)cc1 (stereo not given)"
readout_name = "TGI"
measure_unit = "µM"
bound_operator = "="
numeric_result = 0.0608

[[record]]
molecule = "NS(=O)(=O)c1ccc(NC(=O)COC(=O)c2cccc3c(=O)c4ccccc4[nH]c23)cc1"
readout_name = "TGI"
measure_unit = "µM"
bound_operator = "="
numeric_result = 47.6

[[record]]
molecule = "CC(=O)N(CN1C(=O)CCC1C(=O)O)c1ccccc1Cl (stereo not given)"
readout_name = "TGI"
measure_unit = "µM"
bound_operator = ">"
numeric_result = 100

[[record]]
molecule = "Cc1ccc2c(=O)c(-c3n[nH]c(=S)s3)c[nH]c2n1"
readout_name = "TGI"
measure_unit = "µM"
bound_operator = ">"
numeric_result = 100

[[record]]
molecule = "C=CCCC(=O)N1C=CC(=O)[C@H](O)[C@@H]1/C=C/c1ccccc1"
readout_name = "TGI"
measure_unit = "µM"
bound_operator = ">"
numeric_result = 32.5

[[record]]
molecule = "CC(C)(C)C(=O)OCc1nc2cc3c(cc2c(=O)[nH]1)CCC3=O"
readout_name = "TGI"
measure_unit = "µM"
bound_operator = ">"
numeric_result = 100

